In this section we review reported IC50 values for a set of molecules.
target system: hPAD4 (Homo sapiens, UniProt Q9UM07)
Sequence (Q9UM07 whole entry): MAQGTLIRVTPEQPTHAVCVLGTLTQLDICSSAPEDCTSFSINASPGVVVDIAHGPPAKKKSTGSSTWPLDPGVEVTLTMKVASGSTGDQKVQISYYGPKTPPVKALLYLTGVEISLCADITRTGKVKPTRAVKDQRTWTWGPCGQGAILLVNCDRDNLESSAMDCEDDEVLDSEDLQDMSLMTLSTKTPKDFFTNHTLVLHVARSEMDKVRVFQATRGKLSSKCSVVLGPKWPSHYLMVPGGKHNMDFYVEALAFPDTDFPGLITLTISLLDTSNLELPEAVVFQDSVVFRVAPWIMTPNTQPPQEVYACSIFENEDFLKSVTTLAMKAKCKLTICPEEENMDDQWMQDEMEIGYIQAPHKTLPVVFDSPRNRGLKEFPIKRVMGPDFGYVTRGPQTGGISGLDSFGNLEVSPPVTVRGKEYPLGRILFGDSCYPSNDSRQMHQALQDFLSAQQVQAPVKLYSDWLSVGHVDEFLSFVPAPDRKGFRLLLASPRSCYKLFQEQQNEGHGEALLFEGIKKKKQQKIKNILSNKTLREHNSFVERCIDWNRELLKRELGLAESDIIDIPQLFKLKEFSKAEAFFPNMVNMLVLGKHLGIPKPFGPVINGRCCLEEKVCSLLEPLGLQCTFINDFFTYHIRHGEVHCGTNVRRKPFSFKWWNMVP
measurement notes: hPAD4 RFMS (RapidFire mass spectrometry) PAD4 inhibition assay;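 as to hPAD4 RFMS pIC50: grade E means pIC50 at most 4 and F means pIC50 4.0 to 5.0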
Assay type: biochemical
assay conditions: hPAD4 enzyme, RFMS readout; pIC50=−log(IC50); read-out: hPAD4 RFMS pIC50 (converted)
measured quantity: IC50

[
  {
    "molecule": "Cn1c(-c2cc3cccnc3n2CC2CC2)nc2cc(C(=O)N3C[C@@H](N)C[C@H](F)C3)cc(OC(F)F)c21 [Compound I-73]",
    "measured quantity": "IC50",
    "observed measurement": "1 to 10 µM"
  },
  {
    "molecule": "COc1cc(C(=O)N2C[C@@H]3CC[C@H]2[C@@H](N)C3)cc2nc(-c3cc4cccnc4n3CC3CC3)n(C)c12 [Compound I-212]",
    "measured quantity": "IC50",
    "observed measurement": "10 to 100 µM"
  },
  {
    "molecule": "COc1cc(C(=O)N2CC[C@H]3CCN[C@H]3C2)cc2nc(-c3cc4cccnc4n3CC3CC3)n(C)c12 [Compound I-17]",
    "measured quantity": "IC50",
    "observed measurement": "10 to 100 µM"
  },
  {
    "molecule": "COc1cc(C(=O)N2CC[C@@]3(CNCCC3(F)F)C2)cc2nc(-c3cc4cccnc4n3CC3CC3)n(C)c12 [Compound I-108]",
    "measured quantity": "IC50",
    "observed measurement": "10 to 100 µM"
  },
  {
    "molecule": "CCn1c(-c2nc3cc(C(=O)N4CCC[C@@H](N)C4)cc(OC)c3n2CCOC)cc2cccnc21 [Compound I-176]",
    "measured quantity": "IC50",
    "observed measurement": "1 to 10 µM"
  },
  {
    "molecule": "CO[C@]1(C)C[C@H](Cn2c(-c3cc4cccnc4n3CC3CC3)nc3cc(C(=O)N4C[C@H]5CC[C@@H]4[C@@H]5N)cc(F)c32)C1 [Compound I-223]",
    "measured quantity": "IC50",
    "observed measurement": "< 1 µM"
  },
  {
    "molecule": "Cn1c(-c2cc3cccnc3n2CC2CC2)nc2cc(C(=O)N3CC4CNC4C3)ccc21 (stereo not shown) [Compound I-38]",
    "measured quantity": "IC50",
    "observed measurement": "> 100 µM"
  }
]

----------
Listing of entries alongside the reported IC50.
target system: hPAD4 (Homo sapiens)
measurement notes: hPAD4 RFMS (RapidFire mass spectrometry) PAD4 inhibition assay
Type: biochemical
assay conditions: hPAD4 enzyme, RFMS readout; read-out: hPAD4 RFMS IC50

[
  {
    "molecule": "Cn1c(-c2cc3cccnc3n2CC2CC2)nc2cc(C(=O)N3CC[C@@H]4CCN[C@@H]4C3)ccc21",
    "IC50": "> 10 µM"
  },
  {
    "molecule": "CO[C@@H]1CCN(C(=O)c2cc(OC(F)F)c3c(c2)nc(-c2cc4cccnc4n2CC2CC2)n3C)C[C@@H]1N [Compound I-124]",
    "IC50": "> 10 µM"
  },
  {
    "molecule": "COc1cc(C(=O)N2C[C@@H](N)C[C@H](F)C2)cc2nc(-c3cc4cccnc4n3CC3CC3)n(C)c12",
    "IC50": "< 1 µM"
  },
  {
    "molecule": "COc1cc(C(=O)N2CCC[C@@H](N)C2)cc2nc(-c3cc4cccnc4n3CC3CC3)n(CC3CC(C)(O)C3)c12 (some centres unmarked)",
    "IC50": "< 1 µM"
  },
  {
    "molecule": "CCn1c(-c2nc3cc(C(=O)N4CCC[C@@H](N)C4)ccc3n2CCOC)cc2cccnc21",
    "IC50": "5 to 10 µM"
  },
  {
    "molecule": "COc1ccc2cc(-c3nc4cc(C(=O)N5CCC[C@@H](N)C5)ccc4n3C)n(CC3CC3)c2n1",
    "IC50": "< 1 µM"
  },
  {
    "molecule": "COc1cc(C(=O)N2C[C@H](N)CC[C@@H]2CO)cc2nc(-c3cc4cccnc4n3CC3CC3)n(C)c12 (racemic) [Compound I-221]",
    "IC50": "> 10 µM"
  },
  {
    "molecule": "COc1cc(C(=O)N2CC3(CCC3N)C2)cc2nc(-c3cc4cccnc4n3CC3CC3)n(C)c12 (centres unmarked)",
    "IC50": "> 10 µM"
  },
  {
    "molecule": "CCn1c(-c2nc3cc(C(=O)N4CCC[C@@H](N)C4)cc(F)c3n2C)cc2cccnc21",
    "IC50": "1 to 5 µM"
  },
  {
    "molecule": "COc1cc(C(=O)N2C[C@H]3CC[C@@H]2[C@@H]3N)cc2nc(-c3cc4cccnc4n3CC3CC3)n([C@H]3C[C@@H](OC)C3)c12",
    "IC50": "< 1 µM"
  },
  {
    "molecule": "Cn1c(-c2cc3cccnc3n2CC2CC2)nc2cc(C(=O)N3CCCC4(CCNC4)C3)ccc21 (centres unmarked)",
    "IC50": "> 10 µM"
  },
  {
    "molecule": "COc1ccc2cc(-c3nc4cc(C(=O)N5CCC[C@@H](N)C5)cc(OC(F)F)c4n3C)n(CC3CC3)c2n1",
    "IC50": "< 1 µM"
  },
  {
    "molecule": "COc1cc(C(=O)N2CC(O)(C3(N)CCCC3)C2)cc2nc(-c3cc4cccnc4n3CC3CC3)n(C)c12",
    "IC50": "> 10 µM"
  },
  {
    "molecule": "Cn1c(-c2cc3cccnc3n2CC2CC2)nc2cc(C(=O)N3CCC[C@@H](N)C3)c(F)cc21",
    "IC50": "1 to 5 µM"
  }
]

----------
target system: mPAD4 (Mus musculus, UniProt Q9Z183)
Sequence (Q9Z183 whole entry): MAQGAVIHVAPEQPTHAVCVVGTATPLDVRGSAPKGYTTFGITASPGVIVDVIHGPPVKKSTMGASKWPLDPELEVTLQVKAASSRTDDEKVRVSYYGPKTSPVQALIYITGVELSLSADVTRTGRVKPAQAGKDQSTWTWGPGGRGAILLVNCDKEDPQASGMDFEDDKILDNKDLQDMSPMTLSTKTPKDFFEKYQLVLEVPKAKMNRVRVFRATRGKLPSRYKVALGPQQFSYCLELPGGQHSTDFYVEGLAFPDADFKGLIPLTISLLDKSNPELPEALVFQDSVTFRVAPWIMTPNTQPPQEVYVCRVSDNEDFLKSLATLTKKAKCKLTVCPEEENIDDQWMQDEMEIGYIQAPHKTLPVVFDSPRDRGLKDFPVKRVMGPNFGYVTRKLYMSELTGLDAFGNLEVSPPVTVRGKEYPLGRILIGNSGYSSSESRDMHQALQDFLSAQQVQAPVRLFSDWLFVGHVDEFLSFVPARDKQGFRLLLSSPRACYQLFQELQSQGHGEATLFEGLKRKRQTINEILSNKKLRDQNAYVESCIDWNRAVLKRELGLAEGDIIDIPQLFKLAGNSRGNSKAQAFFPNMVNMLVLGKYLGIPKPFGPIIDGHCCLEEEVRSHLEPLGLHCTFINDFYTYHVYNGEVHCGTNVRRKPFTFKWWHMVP
measurement notes: mPAD4 RFMS PAD4 inhibition assay;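 also: grade E means pIC50 at most 4 and F means pIC50 4.0 to 5.0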
Assay type: biochemical
assay conditions: mPAD4, RFMS readout; pIC50=−log(IC50); read-out: mPAD4 RFMS pIC50 (converted)
Form field: IC50 (one value per entry).

[
  {
    "molecule": "Cn1c(-c2cc3cccnc3n2CC2CC2)nc2cc(C(=O)N3CCCC4NCCC43)ccc21 (stereo not drawn)",
    "IC50": "10 to 100 µM"
  },
  {
    "molecule": "COc1cc(C(=O)N2C[C@@H](N)C[C@H](F)C2)cc2nc(-c3cc4cccnc4n3CC3CC3)n(C)c12",
    "IC50": "< 1 µM"
  },
  {
    "molecule": "COc1cc(C(=O)N2C[C@H]3CC[C@@H]2[C@@H]3N)cc2nc(-c3cc4cccnc4n3CC3CC3)n(C[C@H]3CCOC3)c12",
    "IC50": "< 1 µM"
  },
  {
    "molecule": "CN[C@@H]1[C@@H]2CC[C@H]1N(C(=O)c1cc(OC)c3c(c1)nc(-c1cc4cccnc4n1CC1CC1)n3C)C2",
    "IC50": "10 to 100 µM"
  },
  {
    "molecule": "COc1cc(C(=O)N2CC[C@@H]3CCN[C@@H]3C2)cc2nc(-c3cc4cccnc4n3CC3CC3)n(C)c12",
    "IC50": "< 1 µM"
  },
  {
    "molecule": "COc1ccc2cc(-c3nc4cc(C(=O)N5CCC[C@@H](N)C5)cc(OC)c4n3C)n(CC3CC3)c2n1",
    "IC50": "< 1 µM"
  },
  {
    "molecule": "COc1cc(C(=O)N2CC3(CNCCO3)C2)cc2nc(-c3cc4cccnc4n3CC3CC3)n(C)c12",
    "IC50": "10 to 100 µM"
  },
  {
    "molecule": "CCn1c(-c2nc3cc(C(=O)N4C[C@H]5CC[C@@H]4[C@@H]5N)ccc3n2CCOC)cc2cccnc21",
    "IC50": "10 to 100 µM"
  },
  {
    "molecule": "CO[C@]1(C)C[C@H](Cn2c(-c3cc4cccnc4n3CC3CC3)nc3cc(C(=O)N4C[C@H]5CC[C@@H]4[C@@H]5N)cc(F)c32)C1",
    "IC50": "< 1 µM"
  },
  {
    "molecule": "COc1cc(C(=O)N2CCC(F)C(N)C2)cc2nc(-c3cc4cccnc4n3CC3CC3)n(C)c12 (stereo not drawn) [Compound I-56]",
    "IC50": "1 to 10 µM"
  },
  {
    "molecule": "COc1ccc2cc(-c3nc4cc(C(=O)N5CC[C@@H](OC)[C@@H](N)C5)ccc4n3C)n(CC3CC3)c2n1",
    "IC50": "1 to 10 µM"
  },
  {
    "molecule": "COc1cc(C(=O)N2C[C@H]3COC[C@@]3(CN)C2)cc2nc(-c3cc4cccnc4n3CC3CC3)n(C)c12",
    "IC50": "10 to 100 µM"
  },
  {
    "molecule": "COc1cc(C(=O)N2C[C@H]3CC[C@@H]2[C@@H]3N)cc2nc(-c3cc4cc(F)cnc4n3CC3CC3)n(C)c12",
    "IC50": "< 1 µM"
  },
  {
    "molecule": "CCn1c(-c2nc3cc(C(=O)N4C[C@H]5CC[C@@H]4[C@@H]5N)cc(OC)c3n2C)cc2ccc(C(F)F)nc21",
    "IC50": "< 1 µM"
  },
  {
    "molecule": "COc1cc(C(=O)N2CCC3(CNCCC3(F)F)C2)cc2nc(-c3cc4cccnc4n3CC3CC3)n(C)c12 (racemic)",
    "IC50": "10 to 100 µM"
  },
  {
    "molecule": "COc1cc(C(=O)N2CCC[C@@H](N)C2)cc2nc(-c3cc4cccnc4n3CC3CC(C)(O)C3)n(C)c12 (stereo partly drawn)",
    "IC50": "1 to 10 µM"
  },
  {
    "molecule": "COc1cc(C(=O)N2CC[C@H](F)[C@H](N)C2)cc2nc(-c3cc4cccnc4n3CC3CC3)n(C)c12",
    "IC50": "1 to 10 µM"
  },
  {
    "molecule": "COc1ccc2cc(-c3nc4cc(C(=O)N5C[C@H]6CC[C@@H]5[C@@H]6N)cc(F)c4n3C)n(CC3CC3)c2n1",
    "IC50": "< 1 µM"
  },
  {
    "molecule": "CCn1c(-c2nc3cc(C(=O)N4C[C@H]5CC[C@@H]4[C@@H]5N)cc(OC)c3n2C)cc2cccnc21 (racemic) [Compound I-143]",
    "IC50": "< 1 µM"
  },
  {
    "molecule": "COc1cc(C(=O)N2CC[C@@]3(CNCCC3(F)F)C2)cc2nc(-c3cc4cccnc4n3CC3CC3)n(C)c12",
    "IC50": "10 to 100 µM"
  },
  {
    "molecule": "COc1cc(C(=O)N2C[C@H]3CC[C@@H]2[C@@H]3N)cc2nc(-c3cc4ccc(C)nc4n3CC3CC3)n(C)c12",
    "IC50": "< 1 µM"
  },
  {
    "molecule": "COc1cc(C(=O)N2CC[C@H]3CCN[C@H]3C2)cc2nc(-c3cc4cccnc4n3CC3CC3)n(C)c12",
    "IC50": "10 to 100 µM"
  },
  {
    "molecule": "CCn1c(-c2cc3cccnc3n2CC2CC2)nc2cc(C(=O)N3CC[C@H]4CCN[C@H]4C3)cc(OC)c21",
    "IC50": "10 to 100 µM"
  },
  {
    "molecule": "COc1cc(C(=O)N2C[C@H]3CC[C@@H]2[C@@H]3N)cc2nc(-c3cc4cccnc4n3CC3CC3)n(C[C@H]3C[C@@](C)(OC)C3)c12",
    "IC50": "< 1 µM"
  },
  {
    "molecule": "CCn1c(-c2nc3cc(C(=O)N4CCC[C@@H](N)C4)cc(OC)c3n2C)cc2ccc(OC)nc21",
    "IC50": "< 1 µM"
  },
  {
    "molecule": "CCn1c(-c2nc3cc(C(=O)N4CCC[C@@H](N)C4)cc(OC)c3n2C)cc2ccc(C(F)(F)F)nc21",
    "IC50": "< 1 µM"
  },
  {
    "molecule": "CCn1c(-c2nc3cc(C(=O)N4C[C@H]5CC[C@@H]4[C@@H]5N)ccc3n2C)cc2cccnc21",
    "IC50": "1 to 10 µM"
  }
]
